// provenance: patent US6576662B2

quantityMeasured: melting point (°C)

molecule | readoutUnits | melting point
C=C1CCC2[C@](C)(CO)[C@H](O)CC[C@]2(C)[C@H]1CC(C1=CCOC1=O)n1cc(F)c(=O)[nH]c1=O (stereo partly shown) [Example 51] | °C | 155
C=C1CCC2[C@](C)(COC(C)=O)C(OC(C)=O)CC[C@]2(C)[C@H]1CC(OC(C)=O)C1=CCOC1=O (stereo partly shown) [Example 74] | °C | 152.7
C=C1CCC2[C@](C)(CO)[C@H](O)CC[C@]2(C)[C@H]1CC(Nc1cc[nH]c(=O)n1)C1=CCOC1=O (stereo partly shown) [Example 49] | °C | 163
C=C1CCC2[C@]3(C)COC(C)(c4ccccc4)OC3CC[C@]2(C)[C@H]1CC(Sc1ccccc1)C1=CCOC1=O (stereo partly shown) [Example 67] | °C | 154.1
C=C1CCC2[C@](C)(CO)[C@H](O)CC[C@]2(C)[C@H]1CC(Sc1ccccc1)C1=CCOC1=O (stereo partly shown) [Example 63, 14-Deoxy-12-phenylthio andrographolide] | °C | 105

I: C=C1CCC2[C@]3(C)COC(C)(c4ccccc4)OC3CC[C@]2(C)[C@H]1CC(NC(C(=O)OC)c1ccccc1)C1=CCOC1=O (stereo partly shown) [Example 2]
II: C=C1CCC2[C@](C)(CO)[C@H](O)CC[C@]2(C)[C@H]1CC(NCc1ccccc1)C1=CCOC1=O (stereo partly shown) [Example 18]
Could you tell me which of these two has the smaller melting point figure? First: I Second: II Let me know the label of the one you choose. I

----------
quantityMeasured: melting point

molecule | melting point
C=C1CCC2[C@]3(C)COC(C)(c4ccccc4)OC3CC[C@]2(C)[C@H]1CC(NC(Cc1ccccc1)C(=O)OC)C1=CCOC1=O (stereo partly drawn) | 171.6 to 171.9 °C
C=C1CCC2[C@](C)(CO)[C@H](O)CC[C@]2(C)[C@H]1CC(C1=CCOC1=O)n1cc(I)c(=O)[nH]c1=O (stereo partly drawn) | 187 to 188 °C

Proceeding to the next molecule to report its melting point.
Item C=C1CCC2[C@]3(C)COC(C)(c4ccccc4)OC3CC[C@]2(C)[C@H]1CC(SCC)C1=CCOC1=O (stereo partly drawn) has what recorded melting point? 122.5 to 125 °C

----------
This section presents compounds with their documented melting point values.

Recorded results for 2 compounds are shown here.
compound | experimentalResult
C=C1CCC2[C@]3(C)COC(c4ccccc4)OC3CC[C@]2(C)[C@H]1CC(Sc1ccccc1)C1=CCOC1=O (stereo partly drawn) [Example 69] | 74 to 76 °C
C[C@]1(CO)C2CC[C@]3(CO3)[C@H](CC(Sc3ccccc3)C3=CCOC3=O)[C@@]2(C)CC[C@H]1O (stereo partly drawn) [Example 54] | 90 °C

Consider the additional compound presented here.
May I ask what melting point has been recorded for C=C1CCC2[C@](C)(CO)C(O)CC[C@]2(C)[C@H]1CC(Nc1ccc(OC)c(OC)c1)C1=CCOC1=O (stereo partly drawn) [Example 37] ? 225 to 230 °C
